All figures here come from the supplement of paper PMC9732359.

assay: protein stability index of a GFP-peptide fusion (yeast GPS) (PSI 1-4); higher = more stable; sorted into four equal gates, so the index is relative within each strain; conditions: ubr1∆
PROPERTY LABEL: protein stability index
Please respond with just the number, no unit label.

protein stability index lookup needed for PSKSQTNFKEEITDASL [YML103C/NUP188] , thanks.
2.92

protein stability index lookup needed for HGVLQGTSQNYGTATAD [MED1] , thanks.
3.14

protein stability index lookup needed for RIIGLSATLPNYEDVGR [BRR2] , thanks.
1.94

protein stability index lookup needed for MKYIQTEQQIEVPEGVT [RPL9A] , thanks.
2.77

protein stability index lookup needed for SPIKNGSCTRQLAGKSG [YOR098C/NUP1] , thanks.
3.08

protein stability index lookup needed for ARRRQPTDQNNQSNLNG [SNF2] , thanks.
3.24

protein stability index lookup needed for ETAAMASLALAHVFVGT [RPN1] , thanks.
1.41

protein stability index lookup needed for DLVKPKNPKFSNAFYSV [SMC4] , thanks.
2.82

protein stability index lookup needed for SSTLGIDLEDIKEELTK [PCI8] , thanks.
3.02

protein stability index lookup needed for TKFSKLIGRPPLLVPGM [FAS1] , thanks.
1.65

protein stability index lookup needed for EEQKIVKKVVKEQTEAA [RPL34A] , thanks.
3.13

protein stability index lookup needed for SAQAETEALLLEHDVEY [DIS3] , thanks.
3.15

protein stability index lookup needed for NNIKNGTNNISQHGQGN [YDL088C/ASM4] , thanks.
3.06

protein stability index lookup needed for VNGPNVHPGANYLLKRN [RPO31] , thanks.
3.21

----------
test: protein stability index of a GFP-peptide fusion (yeast GPS) (PSI 1-4); higher = more stable; sorted into four equal gates, so the index is relative within each strain; conditions: ubr1∆
Exercise: for every item that follows, state its recorded protein stability index.

protein stability index lookup needed for WKEVLAHNPELERYVKR [RPO31] , thanks.
3.45

protein stability index lookup needed for VAALRFTAGARAKIVKA [RPL18A] , thanks.
1.18

protein stability index lookup needed for NTFKVLSKFFFFIFVFN [COB] , thanks.
1.29

protein stability index lookup needed for VHLSNGYKMIPGAKPLQ [FAS1] , thanks.
1.81

protein stability index lookup needed for MFLTRSEYDRGVSTFSP [PUP2] , thanks.
3.34

protein stability index lookup needed for KHWQERVKVHFDQAGKK [RPL13A] , thanks.
2.35

protein stability index lookup needed for GLGVLTHRNKDGTGVRV [FAS1] , thanks.
3.27

protein stability index lookup needed for QDLNQRFQDPYVAIVVD [RRI1] , thanks.
2.71

protein stability index lookup needed for VFYAPNVKNYSTTQEIL [RPC34] , thanks.
2.06

protein stability index lookup needed for LKEVLYNDSATSGEAAA [RPN2] , thanks.
1.28

protein stability index lookup needed for MTMLTPNYLHLVSSYLN [YML103C/NUP188] , thanks.
1.4

protein stability index lookup needed for GNLIGVDPFDSDEEESV [SNU114] , thanks.
3.2

protein stability index lookup needed for KDGEDIIFNYVPGPGTK [CSL4] , thanks.
2.52

protein stability index lookup needed for MFKLGNFESPVLKELSR [YLR018C/POM34] , thanks.
2.66

----------
assay: protein stability index of a GFP-peptide fusion (yeast GPS) (PSI 1-4); higher = more stable; sorted into four equal gates, so the index is relative within each strain; settings: san1∆
Exercise: for every item that follows, state its recorded protein stability index.

protein stability index lookup needed for VNGRTKSNTIPVTSIPS [GAL11] , thanks.
2.99

protein stability index lookup needed for EAIDGNGEIKGENIDAD [SNF2] , thanks.
3.48

protein stability index lookup needed for LLKEEKIIELMNKIFTI [YML103C/NUP188] , thanks.
1.26

protein stability index lookup needed for LTNDTFEKKLSIIKAKL [YML103C/NUP188] , thanks.
2.43

protein stability index lookup needed for EAKKFEPTYRLVRYGLA [RPS24A] , thanks.
2.79

protein stability index lookup needed for NRRKQSFVLNKNTIDFE [RPN4] , thanks.
2.1

protein stability index lookup needed for IDELIDTKLRLEKSKNE [YIL149C/MLP2] , thanks.
2.8

protein stability index lookup needed for LGKKGVPYVVTHDGRTI [RPS4A] , thanks.
1.66

protein stability index lookup needed for IQAVFCLTKFQDEEQTE [YCG1] , thanks.
2.64

protein stability index lookup needed for FDNYQRNNFLAENSHTQ [PUP1] , thanks.
3.17

protein stability index lookup needed for YFKSILLNKNTGNNLYD [SWI1] , thanks.
2.04

protein stability index lookup needed for NEDDALIYGISDEERDD [AAR2] , thanks.
3.62

protein stability index lookup needed for EIDVENHDRINISNNLQ [RPN8] , thanks.
3.32

protein stability index lookup needed for FKNDFNSFYYTSLLYLS [RPN9] , thanks.
2.19

protein stability index lookup needed for FIYGMSAKDHPKVKEIK [PRP8] , thanks.
2.72

protein stability index lookup needed for IQLLDENVGTRLLPINV [MED11] , thanks.
3.14

protein stability index lookup needed for SGVKNDILQSLSGGGHD [CDC53] , thanks.
2.71

protein stability index lookup needed for AGGEAGEAEAEKEEEEA [RPP1A] , thanks.
2.54

protein stability index lookup needed for VSTKMHRTIVIRRAYLH [RPS11A] , thanks.
1.54

protein stability index lookup needed for ALVYSYIEASGREGIWS [RPC34] , thanks.
2.28

protein stability index lookup needed for NGRLNKCGVISPRFNVK [RPS22A] , thanks.
2.88

protein stability index lookup needed for GVIIKVEESGEHVILGN [SNU114] , thanks.
3.2

protein stability index lookup needed for LKPKLYYEQFRPDLIKE [SIR3] , thanks.
3.25

protein stability index lookup needed for DLALKMGVPIYGIVAMA [FAS2] , thanks.
1.36

protein stability index lookup needed for MSREGFQIPTNLDAAAA [RPC10] , thanks.
1.35

protein stability index lookup needed for RQQYYSGVQVGGVGSMG [SNF6] , thanks.
2.19

protein stability index lookup needed for AQGVAVQLKRQPAQPRE [RPL21A] , thanks.
1.61

protein stability index lookup needed for YILSLVSIKDSTGCVVG [YMR129W/POM152] , thanks.
1.92

protein stability index lookup needed for GQPVNDFIDTATRHVLM [RPS3] , thanks.
3.1

protein stability index lookup needed for PSKDSFTKYKPARSSSL [YAR002W/NUP60] , thanks.
2.44

protein stability index lookup needed for SAQQNLASSFVNGFLNL [RPN1] , thanks.
3.1

protein stability index lookup needed for SRLLDILEDYCYFRDFE [ISW2] , thanks.
1.5

protein stability index lookup needed for RRRDFGAPANKRPRRGL [SMD1] , thanks.
3.38

protein stability index lookup needed for TMMTVEEKPDVTYSDVG [RPT1] , thanks.
1.83

protein stability index lookup needed for ARIIAAIPNPEDVVAIS [RPS0A] , thanks.
2.34

protein stability index lookup needed for GRRWNELRRFESSINTH [SKI6] , thanks.
2.01

protein stability index lookup needed for SPEGRLFQVEYSLEAIK [PUP2] , thanks.
2.75

protein stability index lookup needed for PYYKYLCEEYLVNNGQS [RPN7] , thanks.
2.61

protein stability index lookup needed for EDFAPLLAEEEELILPN [PRP8] , thanks.
2.93

protein stability index lookup needed for RALRRALTKFEASQVTE [RPL35A] , thanks.
3.11

protein stability index lookup needed for AHMSIGCLHKGKLISNL [YML031W/NDC1] , thanks.
2.14

protein stability index lookup needed for TWYVGNSRGKFDDACNQ [SSN2] , thanks.
2.9

protein stability index lookup needed for KEAAAVAEGKSKQDASP [RPL8A] , thanks.
3.15

protein stability index lookup needed for EPLSDTEEPDLAIADVE [DSN1] , thanks.
3.09

protein stability index lookup needed for SVNPAMLPGSSNGGGKV [RPO31] , thanks.
3.07

protein stability index lookup needed for PVDHPHGGGNHQHIGKA [RPL2A] , thanks.
3.09

protein stability index lookup needed for PFVLAENMWPFSYQEVE [CDC53] , thanks.
1.56

protein stability index lookup needed for NYAMTRNILHNTVPQVT [SRB5] , thanks.
1.66

protein stability index lookup needed for VCIRPSVMMQDSPASNE [RPO31] , thanks.
1.94

protein stability index lookup needed for PYTGWVDSKTKEPVDDK [FAS2] , thanks.
3.05

protein stability index lookup needed for ERGFACIPLVGISVPFH [FAS1] , thanks.
1.22

protein stability index lookup needed for ANLLPARQFGYVILTTS [RPS22A] , thanks.
1.2

protein stability index lookup needed for EEKGWVPVTKLGRLVKA [RPS2] , thanks.
3.51

protein stability index lookup needed for LRLKLFLYEILSSLKSF [SRB8] , thanks.
1.81

protein stability index lookup needed for ECENEIKTKQMSLKKCQ [SMC2] , thanks.
3.22

protein stability index lookup needed for VPKHMLDKLDEILYYQI [AAR2] , thanks.
2.95

protein stability index lookup needed for LNNLPYKNEDVTALLEQ [YCS4] , thanks.
3.05

protein stability index lookup needed for FAWSKPSTGSNLQQQQQ [YGR119C/NUP57] , thanks.
3.02

protein stability index lookup needed for LESGKETALEFLEKEKQ [SMC4] , thanks.
3.17

protein stability index lookup needed for IIELENINAKMETRINI [YIL149C/MLP2] , thanks.
2.5
